Numbers sourced from paper PMC5966835.

protocol.summary: Cytotoxicity assay
protocol.conditions: hamster and human
assay.metric: CC50

Lab note: `CCCCCc1c2c(cc(O)c1C(=O)O)OC(=O)c1c(cc(OC)cc1C(=O)CCCC)O2` gave CC50 of 50 to 76 µM

---

protocol.summary: Cytotoxicity assay
protocol.conditions: human
assay.metric: CC50 at 48 h (µM)
Number in µM, nothing else.

Lab note: `CCCCCc1c2c(cc(O)c1C(=O)O)OC(=O)c1c(cc(OC)cc1C(=O)CCCC)O2` gave CC50 at 48 h of 50

---

Tested on: CHIKV (strain OPY1)
protocol.summary: Live virus testing, CHIKV in BHK cells, plaque assay
Format: cell-based, Chikungunya virus
protocol.conditions: Chikungunya virus, BHK, 24 h, read-out: BHK EC50
assay.metric: pEC50
Scale explanation: pEC50 corresponds to minus log10 of a concentration expressed in moles per litre.

Form field pEC50 for item `CCCCCc1c2c(cc(O)c1C(=O)O)OC(=O)c1c(cc(OC)cc1C(=O)CCCC)O2` on CHIKV (strain OPY1): 5.00

---

Heads up, these compounds all have Ki values measured for UniProt P29990.
Sequence (P29990 2492-2758 limits assumed): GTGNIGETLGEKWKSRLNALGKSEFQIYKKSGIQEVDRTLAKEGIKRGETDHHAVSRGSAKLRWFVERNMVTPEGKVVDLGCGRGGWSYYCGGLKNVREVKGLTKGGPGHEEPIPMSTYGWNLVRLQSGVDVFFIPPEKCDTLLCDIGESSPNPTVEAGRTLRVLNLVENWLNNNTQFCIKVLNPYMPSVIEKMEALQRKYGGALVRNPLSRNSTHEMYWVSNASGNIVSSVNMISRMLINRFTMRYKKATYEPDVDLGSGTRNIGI
Number in µM, nothing else.

Lab note: CCCCCc1c2c(cc(O)c1C(=O)O)OC(=O)c1c(cc(OC)cc1C(=O)CCCC)O2 [lobaric acid] gave Ki of 43.8

Lab note: CCc1oc2ccccc2c1C(=O)c1cc(Br)c(O)c(Br)c1 [benzbromarone, Benzbromarone, reference compound] gave Ki of 9

Lab note: CN1CCCN=C1/C=C/c1cccs1 [pyrantel pamoate, reference compound] gave Ki of 38

Lab note: CC(C)=CCCC1(C)C=Cc2c(O)c3c(c(CC=C(C)C)c2O1)OC12C(=CCCC1C(C)(C)O[C@@]2(C/C=C(\C)C(=O)O)C(=O)O)C3=O (stereo partly shown) [garcinolic acid] gave Ki of 6.9

---

protocol.summary: Cytotoxicity assay
protocol.conditions: hamster
assay.metric: CC50 at 24 h (µM)
Number in µM, nothing else.

Lab note: `CCCCCc1c2c(cc(O)c1C(=O)O)OC(=O)c1c(cc(OC)cc1C(=O)CCCC)O2` gave CC50 at 24 h of 76.3

---

protocol.summary: Cytotoxicity assay
protocol.conditions: hamster
assay.metric: CC50 at 48 h (µM)
Number in µM, nothing else.

Lab note: `CCCCCc1c2c(cc(O)c1C(=O)O)OC(=O)c1c(cc(OC)cc1C(=O)CCCC)O2` gave CC50 at 48 h of 53.8

---

measurement.target: CHIKV nsP1 (Chikungunya virus)
Sequence (Q8JUX6 1-535 limits assumed): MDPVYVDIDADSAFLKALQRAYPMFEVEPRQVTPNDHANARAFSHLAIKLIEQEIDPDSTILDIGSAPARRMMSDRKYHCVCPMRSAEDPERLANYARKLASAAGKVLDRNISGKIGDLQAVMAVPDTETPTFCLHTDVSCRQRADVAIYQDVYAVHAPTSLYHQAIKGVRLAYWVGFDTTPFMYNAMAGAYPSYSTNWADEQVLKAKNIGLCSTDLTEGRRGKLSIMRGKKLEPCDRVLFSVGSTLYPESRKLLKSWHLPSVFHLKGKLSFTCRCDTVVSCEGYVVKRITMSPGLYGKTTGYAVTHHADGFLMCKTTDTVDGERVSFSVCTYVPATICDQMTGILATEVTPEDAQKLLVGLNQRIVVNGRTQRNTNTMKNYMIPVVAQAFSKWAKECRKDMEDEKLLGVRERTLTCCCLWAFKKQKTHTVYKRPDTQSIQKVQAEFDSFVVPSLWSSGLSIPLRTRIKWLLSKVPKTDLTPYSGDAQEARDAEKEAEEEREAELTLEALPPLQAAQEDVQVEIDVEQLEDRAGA
assay.metric: Ki (µM)
Number in µM, nothing else.

Lab note: CCCCCc1c2c(cc(O)c1C(=O)O)OC(=O)c1c(cc(OC)cc1C(=O)CCCC)O2 [lobaric acid] gave Ki of 7

Lab note: CN1CCCN=C1/C=C/c1cccs1 [pyrantel pamoate, reference compound] gave Ki of 5

Lab note: CC(C)=CCCC1(C)C=Cc2c(O)c3c(c(CC=C(C)C)c2O1)OC12C(=CCCC1C(C)(C)O[C@@]2(C/C=C(\C)C(=O)O)C(=O)O)C3=O (stereo partly shown) [garcinolic acid] gave Ki of 14.5

Lab note: CCc1oc2ccccc2c1C(=O)c1cc(Br)c(O)c(Br)c1 [benzbromarone, Benzbromarone, reference compound] gave Ki of 13
